# TARGET OR TEST SYSTEM: PKB (Homo sapiens)
# Construct: His; HA; made in house
# Sequence (P31749 whole entry, species assumed): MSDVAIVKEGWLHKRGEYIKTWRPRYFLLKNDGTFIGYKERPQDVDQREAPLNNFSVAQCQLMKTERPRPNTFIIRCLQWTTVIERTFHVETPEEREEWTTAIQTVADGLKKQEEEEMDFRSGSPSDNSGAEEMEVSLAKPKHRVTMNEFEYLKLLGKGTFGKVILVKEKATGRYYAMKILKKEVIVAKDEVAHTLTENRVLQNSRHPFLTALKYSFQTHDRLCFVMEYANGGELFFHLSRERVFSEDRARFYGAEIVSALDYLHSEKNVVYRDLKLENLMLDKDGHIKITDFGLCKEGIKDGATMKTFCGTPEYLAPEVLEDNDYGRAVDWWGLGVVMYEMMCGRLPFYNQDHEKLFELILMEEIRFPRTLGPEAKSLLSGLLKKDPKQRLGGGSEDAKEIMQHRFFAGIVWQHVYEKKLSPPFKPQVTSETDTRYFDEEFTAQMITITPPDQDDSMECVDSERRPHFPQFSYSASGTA
# PROCEDURE SUMMARY: PKB in vitro kinase activity assay (soluble His-HA-PKB / SPA bead screening)
# Format: biochemical
# CONDITION CONTEXT: 1 μM compound concentration, Assay 1; read-out: PKB-kinase (spa) Assay 1, % inhibition of kinase activity
*1 amine or outer side, *2 acyl side, *3 side chain or, on linkers, in order; H or OH if unused. Where a SMILES comes first, the peptide text is derived from it. Side-chain parts run from the residue outwards. [ ]: non-standard residue; d: D form. The star is where a group is joined. Isoquinoline5sulfonyl = O=S(=O)(c1cccc2cnccc12)*; Ethylenediamine = C(CN[*:2])N[*:1]; hLeu = CC(C)CC[C@H](N)C(=O)O; Nle = CCCC[C@H](N)C(=O)O; Orn = NCCC[C@H](N)C(=O)O; Dab = NCC[C@H](N)C(=O)O; Nva = CCC[C@H](N)C(=O)O; Dap = NC[C@H](N)C(=O)O; βAla = NCCC(=O)O
# inhibition at 1 µM >= 60% gives Y, anything below gives N

Q. Decide: inhibition at 1 µM of CC(C)CC[C@H](NC(=O)[C@H](CCN)NC(=O)[C@H](CCC(=O)NCC(=O)NCCNS(=O)(=O)c1cccc2cnccc12)NC(=O)[C@H](CCCN)NC(=O)[C@H](CCCNC(=N)N)NC(=O)[C@@H]1CCCN1C(=O)[C@@H](N)CCCNC(=N)N)C(N)=O [60020-42] (H-RPR[Orn]E([Gly-Ethylenediamine-Isoquinoline5sulfonyl])[Dab][hLeu]-NH2) >= 60%?
A. Y

Q. Could you tell me if the measured inhibition at 1 µM of CCCC[C@H](NC(=O)[C@H](CCCNC(=N)N)NC(=O)[C@@H]1CCCN1C(=O)[C@@H](N)CCCNC(=N)N)C(=O)N[C@@H](CCC(=O)NCCC(=O)NCCNS(=O)(=O)c1cccc2cnccc12)C(=O)N[C@@H](CCC)C(=O)N[C@@H](Cc1ccccc1)C(N)=O [60020-95] (H-RPR[Nle]E([βAla-Ethylenediamine-Isoquinoline5sulfonyl])[Nva]F-NH2; N-terminus assumed) reaches 60% or more?
A. N

Q. Check if inhibition at 1 µM >= 60% (inclusive). Item: CCCC[C@H](NC(=O)[C@H](CCCNC(=N)N)NC(=O)[C@@H]1CCCN1C(=O)[C@@H](N)CCCNC(=N)N)C(=O)N[C@@H](CCC(=O)NCC(=O)NCCNS(=O)(=O)c1cccc2cnccc12)C(=O)N[C@@H](CCN)C(=O)N[C@@H](Cc1ccccc1)C(N)=O [60020-57] (H-RPR[Nle]E([Gly-Ethylenediamine-Isoquinoline5sulfonyl])[Dab]F-NH2)
A. Y

Q. Confirm if inhibition at 1 µM reported for the compound CCCC[C@H](NC(=O)[C@H](CCCNC(=N)N)NC(=O)[C@@H]1CCCN1C(=O)[C@@H](N)CCCNC(=N)N)C(=O)N[C@@H](CCC(=O)NCC(=O)NCCNS(=O)(=O)c1cccc2cnccc12)C(=O)N[C@@H](CCCN)C(=O)N[C@@H](Cc1ccccc1)C(N)=O [60020-59] (H-RPR[Nle]E([Gly-Ethylenediamine-Isoquinoline5sulfonyl])[Orn]F-NH2; N-terminus assumed) is 60% or above.
A. Y

Q. For this compound, is measured inhibition at 1 µM 60% or higher? N=C(N)NCCC[C@H](NC(=O)[C@@H]1CCCN1C(=O)[C@@H](N)CCCNC(=N)N)C(=O)N[C@@H](CN)C(=O)N[C@@H](CCC(=O)NCCC(=O)NCCNS(=O)(=O)c1cccc2cnccc12)C(=O)N[C@@H](CCCN)C(=O)N[C@@H](Cc1ccccc1)C(N)=O [60020-67] (H-RPR[Dap]E([βAla-Ethylenediamine-Isoquinoline5sulfonyl])[Orn]F-NH2; N-terminus assumed)
A. N

Q. Decide: inhibition at 1 µM of CCCC[C@H](NC(=O)[C@H](CCCNC(=N)N)NC(=O)[C@@H]1CCCN1C(=O)[C@@H](N)CCCNC(=N)N)C(=O)N[C@@H](CCC(=O)NCC(=O)NCCNS(=O)(=O)c1cccc2cnccc12)C(=O)N[C@@H](CCN)C(=O)N[C@@H](CCC(C)C)C(N)=O [60020-58] (H-RPR[Nle]E([Gly-Ethylenediamine-Isoquinoline5sulfonyl])[Dab][hLeu]-NH2) >= 60%?
A. Y

* * *

# TARGET OR TEST SYSTEM: PKA (Bos taurus, UniProt P00517)
# Construct: purchased Promega
# PROCEDURE SUMMARY: In vitro PKA kinase activity assay (kemptide / SPA beads)
# Assay type: biochemical
# CONDITION CONTEXT: Table 6, most active compounds from plate TY-60020; read-out: IC50 PKA
*1 amine or outer side, *2 acyl side, *3 side chain or, on linkers, in order; H or OH if unused. Where a SMILES comes first, the peptide text is derived from it. Side-chain parts run from the residue outwards. [ ]: non-standard residue; d: D form. The star is where a group is joined. Isoquinoline5sulfonyl = O=S(=O)(c1cccc2cnccc12)*; Ethylenediamine = C(CN[*:2])N[*:1]; hLeu = CC(C)CC[C@H](N)C(=O)O; Nle = CCCC[C@H](N)C(=O)O; Orn = NCCC[C@H](N)C(=O)O; Nva = CCC[C@H](N)C(=O)O; Dap = NC[C@H](N)C(=O)O; βAla = NCCC(=O)O
MEASURE NAME: IC50
Please state the value followed by its unit.

Q. Write down IC50 measured for item CC(C)CC[C@H](NC(=O)[C@H](CCCN)NC(=O)[C@H](CCC(=O)NCCC(=O)NCCNS(=O)(=O)c1cccc2cnccc12)NC(=O)[C@H](CN)NC(=O)[C@H](CCCNC(=N)N)NC(=O)[C@@H]1CCCN1C(=O)[C@@H](N)CCCNC(=N)N)C(N)=O [60020-68] (H-RPR[Dap]E([βAla-Ethylenediamine-Isoquinoline5sulfonyl])[Orn][hLeu]-NH2; N-terminus assumed)
A. 250 nM

Q. Return reported IC50. Input molecule: CCCC[C@H](NC(=O)[C@H](CCCNC(=N)N)NC(=O)[C@@H]1CCCN1C(=O)[C@@H](N)CCCNC(=N)N)C(=O)N[C@@H](CCC(=O)NCC(=O)NCCNS(=O)(=O)c1cccc2cnccc12)C(=O)N[C@@H](CCCN)C(=O)N[C@@H](Cc1ccccc1)C(N)=O [60020-59] (H-RPR[Nle]E([Gly-Ethylenediamine-Isoquinoline5sulfonyl])[Orn]F-NH2; N-terminus assumed)
A. 200 nM

Q. Consider the molecule CCCC[C@H](NC(=O)[C@H](CCCNC(=N)N)NC(=O)[C@@H]1CCCN1C(=O)[C@@H](N)CCCNC(=N)N)C(=O)N[C@@H](CCC(=O)NCCC(=O)NCCNS(=O)(=O)c1cccc2cnccc12)C(=O)N[C@@H](CCC)C(=O)N[C@@H](Cc1ccccc1)C(N)=O [60020-95] (H-RPR[Nle]E([βAla-Ethylenediamine-Isoquinoline5sulfonyl])[Nva]F-NH2; N-terminus assumed) . State its measured IC50.
A. 2000 nM

Q. Using the record for N=C(N)NCCC[C@H](NC(=O)[C@@H]1CCCN1C(=O)[C@@H](N)CCCNC(=N)N)C(=O)N[C@@H](CN)C(=O)N[C@@H](CCC(=O)NCCC(=O)NCCNS(=O)(=O)c1cccc2cnccc12)C(=O)N[C@@H](CCCN)C(=O)N[C@@H](Cc1ccccc1)C(N)=O [60020-67] (H-RPR[Dap]E([βAla-Ethylenediamine-Isoquinoline5sulfonyl])[Orn]F-NH2; N-terminus assumed) , state its measured IC50.
A. 250 nM

* * *

Kindly state IC50 for each of the entries shown.
# TARGET OR TEST SYSTEM: PKA (Bos taurus, UniProt P00517)
# Construct: purchased Promega
# PROCEDURE SUMMARY: In vitro PKA kinase activity assay (kemptide / SPA beads);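 note: Cell-free assay of purified PKA catalytic subunit phosphorylating the 7-mer kemptide substrate, run in MOPS buffer with magnesium acetate and BSA, with blank wells lacking enzyme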
# Assay type: biochemical
# CONDITION CONTEXT: chimeric PTR compounds (peptide conjugated to isoquinoline small molecule); read-out: PKA IC50
*1 amine or outer side, *2 acyl side, *3 side chain or, on linkers, in order; H or OH if unused. Where a SMILES comes first, the peptide text is derived from it. Side-chain parts run from the residue outwards. [ ]: non-standard residue; d: D form. The star is where a group is joined. Isoquinoline5sulfonyl = O=S(=O)(c1cccc2cnccc12)*; Ethylenediamine = C(CN[*:2])N[*:1]; Nle = CCCC[C@H](N)C(=O)O; Dab = NCC[C@H](N)C(=O)O; Ava = NCCCCC(=O)O; βAla = NCCC(=O)O
Answer with a number only, understood to be in nM.

Q. Look up and report measured IC50 (PKA (Bos taurus, UniProt P00517)) for the following molecule: C[C@@H](O)[C@H](NC(=O)[C@H](CCCNC(=N)N)NC(=O)[C@@H]1CCCN1C(=O)[C@@H](N)CCCNC(=N)N)C(=O)N[C@@H](CCC(=O)NCCNS(=O)(=O)c1cccc2cnccc12)C(=O)N[C@@H](CO)C(=O)N[C@@H](Cc1ccccc1)C(N)=O [PTR 6016] (H-RPRTE([Ethylenediamine-Isoquinoline5sulfonyl])SF-NH2; N-terminus assumed)
A. 100

Q. Fill in IC50 for CCCC[C@H](NC(=O)[C@H](CCCNC(=N)N)NC(=O)[C@@H]1CCCN1C(=O)[C@@H](N)CCCNC(=N)N)C(=O)N[C@@H](CCC(=O)NCCC(=O)NCCNS(=O)(=O)c1cccc2cnccc12)C(=O)N[C@@H](CCN)C(=O)N[C@@H](Cc1ccccc1)C(N)=O [compound 6140] (H-RPR[Nle]E([βAla-Ethylenediamine-Isoquinoline5sulfonyl])[Dab]F-NH2; N-terminus assumed) tested with PKA (Bos taurus, UniProt P00517).
A. 195

Q. Quote PKA (Bos taurus, UniProt P00517) IC50 for entry C[C@@H](O)[C@H](NC(=O)[C@H](CCCNC(=N)N)NC(=O)[C@@H]1CCCN1C(=O)[C@@H](N)CCCNC(=N)N)C(=O)N[C@@H](CCC(=O)NCCCCC(=O)NCCNS(=O)(=O)c1cccc2cnccc12)C(=O)N[C@@H](CO)C(=O)N[C@@H](Cc1ccccc1)C(N)=O [compound 6090] (H-RPRTE([Ava-Ethylenediamine-Isoquinoline5sulfonyl])SF-NH2; N-terminus assumed) .
A. 600
